# EXPERIMENT_NOTES: in vitro
# MEASUREMENT_CONTEXT: human, hela cells, % viability
viability at 28.5 h, 10 µM values for the molecules below.
EXPERIMENTAL_READOUT: viability at 28.5 h, 10 µM (%)

>>> measurement("CCOC(=O)c1cnc2c(Cl)cc(Cl)cc2c1NCCN1CCOCC1")
83.5
>>> measurement("c1ccc(COc2ccccc2CNCCN2CCOCC2)cc1 [CBK278212C]")
90.7
>>> measurement("Cc1ccc(-c2ccccc2CC2(C(=O)Nc3cccc(C(N)=O)c3)CCOCC2)c(C)c1")
92.7
>>> measurement("CCCCC12CN3CCN(CC(C3)/C1=N\\N=C1/C3CN4CCN(C3)CC1(CCCC)C4)C2")
104
>>> measurement("N#Cc1sc2c(c1NC(=O)C(F)(F)F)CCCC2")
92.1
>>> measurement("COc1cc(NS(=O)(=O)c2ccc(NC(=O)c3ccc(C)o3)cc2)nc(OC)n1")
91.6
>>> measurement("COc1ccccc1N1CCN(c2nccc3sc(S(=O)(=O)NCc4ccc(C(F)(F)F)c(F)c4)cc23)CC1 [CBK038270C]")
93.8
>>> measurement("Cc1ccc(OCC(=O)NCCCN(C)C)cc1")
98.3
>>> measurement("COc1ccc(C(C)C)cc1-c1cncc(NCCc2ccccn2)n1")
94.9

====

# EXPERIMENT_NOTES: in vitro
# MEASUREMENT_CONTEXT: human, hela cells, % viability
viability at 28.5 h, 10 µM values for the molecules below.
EXPERIMENTAL_READOUT: viability at 28.5 h, 10 µM (%)

>>> measurement("Cn1cc(C2CCCCCN2C(=O)c2ccccc2F)cn1 (centres unmarked)")
107
>>> measurement("Cc1ccc(C2(CN3CCN(Cc4cncn4C)CC3)CC2)cc1")
107
>>> measurement("Cc1cc(C[C@@H]2COC[C@H]2NCc2ccc(C(C)C)cc2)on1")
107
>>> measurement("CC(C)n1cc(C(=O)N2CCCCC2c2nc3ccccc3[nH]2)cn1 (centres unmarked)")
102
>>> measurement("O=C(c1ccccc1)C1(CO)COCc2nccn21 (centres unmarked)")
88.7

====

viability at 28.5 h, 10 µM values for the molecules below.
# EXPERIMENT_NOTES: in vitro
# MEASUREMENT_CONTEXT: human, hela cells, % viability
EXPERIMENTAL_READOUT: viability at 28.5 h, 10 µM (%)

>>> measurement("O=C(Cc1ccccc1)N1CCN(S(=O)(=O)N2CCOCC2)CC1")
108
>>> measurement("CCOc1ccccc1N(CC(=O)Nc1ccc(C)cc1C)S(C)(=O)=O")
96
>>> measurement("COc1cc(-c2cncc(NCCc3ccncc3)n2)cc(OC)c1OC")
94.4
>>> measurement("Cc1cn(C2CC(O)C(CNC(=O)C(F)(F)F)O2)c(=O)[nH]c1=O (stereo not shown)")
98
>>> measurement("C(#Cc1ccc(-c2nc(-c3ccc(Sc4ccccc4)cc3)c(-c3ccc(Sc4ccccc4)cc3)[nH]2)cc1)c1ccccc1")
95.3
>>> measurement("COc1ccc(Nc2ccc(-c3cccc(N(C)C)c3)cn2)cn1")
95.5
>>> measurement("O=[N+]([O-])c1cc(S(=O)(=O)Nc2ccc3cn[nH]c3c2)ccc1Cl")
91.1
>>> measurement("COc1ccc(-c2c(-c3ccc(F)cc3)[nH]c3[nH]c(=O)[nH]c(=O)c23)cc1")
111
>>> measurement("FC(F)(F)c1nc2ccccc2nc1SCc1ccco1")
85.9
>>> measurement("NCCCOc1nc2ccccc2nc1C(F)(F)F")
96.8
>>> measurement("CC(=O)Oc1ccc2c(=O)c(C3NC(C(=O)O)Cc4c3[nH]c3ccccc43)coc2c1 (stereo not shown)")
120
>>> measurement("COc1ccc(C[C@@]23CC[C@@H](NC(=S)NCc4ccccc4)C[C@@H]2N(C)CC3)cc1")
88.4
>>> measurement("COCCn1c(CO)nnc1[C@H]1C[C@@H](NC(=O)c2ccc(C)cc2F)C1")
101
>>> measurement("CCN(CC)C(=O)C1CCCN(C(=O)NCCCSC)C1 (stereo not shown)")
95.1
>>> measurement("Cc1ccc(NC(=O)c2ccncc2)cc1C")
97.5
>>> measurement("CC(C)C(=O)N1C2CCC1Cn1c(nc3ccccc3c1=O)C2 (stereo not shown)")
85.3
>>> measurement("CCc1ccccc1S(=O)(=O)N1CCOC(c2cnn(CC)c2)C1 (stereo not shown)")
94.8
>>> measurement("O=C(CSc1nnc(-c2ccccc2Cl)[nH]1)c1ccc(O)c(O)c1")
78.3
>>> measurement("COC(=O)C1=C(C)N(CCc2ccc(OC)c(OC)c2)C(=O)/C1=C\\c1ccc(O)cc1")
89.6

====

viability at 28.5 h, 10 µM values for the compounds below.
# EXPERIMENT_NOTES: in vitro
# MEASUREMENT_CONTEXT: human, hela cells, % viability
EXPERIMENTAL_READOUT: viability at 28.5 h, 10 µM

>>> measurement("Cc1cc(=O)[nH]c(C)c1C(=O)N1CCC(N2CCCC(CO)C2)CC1 (stereo not shown)")
"103%"
>>> measurement("CCOC(=O)CCNC(=O)C1(c2ccc(OC)cc2)CC1")
"87.3%"
>>> measurement("O=C(CC(CN1CCCCC1)C(=O)O)Nc1cccc(O)c1 (stereo not shown)")
"114%"
>>> measurement("CCOc1cc(C=Cc2cc(C(=O)O)c3ccccc3n2)ccc1OC(F)F")
"86.3%"
>>> measurement("C=CCc1cc(C)cc(C)c1OCCN1CCN(C)CC1 [CBK269672C]")
"101%"
>>> measurement("c1cncc(CN2CCC(Oc3cncc(OCC4COc5ccccc5O4)n3)C2)c1 (stereo not shown)")
"96.5%"
>>> measurement("OC[C@@H](c1ccccc1)N1CC[C@H]2c3ccc(Br)cc3CC[C@H]21 [CBK017507C]")
"84.4%"
>>> measurement("CC(C)(C)c1cc(NC(=O)CN2CCN(c3cccc(Cl)c3)CC2)on1")
"85.7%"
>>> measurement("Brc1ccc(-n2cnnn2)cc1")
"110%"
>>> measurement("CCCN(C)Cc1ccc(-c2cn(CC(=O)NCc3ccc(C(F)(F)F)cc3)nn2)cc1")
"92.9%"

====

# EXPERIMENT_NOTES: in vitro
# MEASUREMENT_CONTEXT: human, hela cells, % viability
viability at 28.5 h, 10 µM values for the molecules below.
EXPERIMENTAL_READOUT: viability at 28.5 h, 10 µM (%)

>>> measurement("Cc1ccc(CS(=O)(=O)N(C)C2CCN(C)C(C)C2)c(F)c1 (stereo not shown) [CBK305484]")
90.4
>>> measurement("Brc1ccc(NCc2ccccn2)cc1 [CBK026347]")
104
>>> measurement("Cc1c(C(=O)N2CCC(CN)C2)nnn1-c1ccc2ncccc2c1 (stereo not shown) [CBK304734]")
101
>>> measurement("CCOC(=O)C1=NOC2COC3(CCN(c4ncccn4)CC3)OCC12 (stereo not shown) [CBK018602]")
94.3
>>> measurement("Cc1cc(NC(=O)N(Cc2cnn(C)c2)CC(C)C)ccc1F [CBK304206]")
105
>>> measurement("O=[N+]([O-])c1ccc(Sc2nnc(COc3ccccc3)n2-c2ccccc2)nc1 [CBK265041]")
85.8
>>> measurement("COc1cc2c(cc1OC)/C(=C/c1ccc[nH]1)C(=O)N2 [CBK018342]")
57.7
>>> measurement("COc1ccc(C(=O)O)cc1CN1CCOCC1 [CBK287029]")
102
>>> measurement("Cc1ccc(S(=O)(=O)NC2(C(F)(F)F)NC(=O)N(c3ccc(F)c(Cl)c3)C2=O)cc1 (stereo not shown) [CBK267473]")
97.2
>>> measurement("O=C(O)c1ccc(S(=O)(=O)Nc2ccc(O)c(-c3c(O)ccc4ccccc34)c2)cc1 [CBK267667]")
108
>>> measurement("Cc1ccc2nc(-c3ccccc3)c(CC(=O)O)c(C(=O)O)c2c1 [CBK265128]")
87.3
>>> measurement("C[C@@H](Nc1nccnc1-c1ccc(C(=O)N2CCOCC2)cc1)c1ccccc1 [CBK037058]")
107
>>> measurement("COc1cc(C)c(-c2nc(C)nc(C)c2C)c(C)c1 [CBK306711]")
90.5
>>> measurement("CS(=O)(=O)CCNC(=O)c1cnc(-c2ccc(F)cc2)c(-c2cccnc2)c1 [CBK038066]")
88
>>> measurement("CSCCN1CCCN(c2nccc(OCc3ccc(Cl)c(Cl)c3)n2)CC1 [CBK083960]")
70.5
>>> measurement("Cc1nc2c(C(=O)NCCCN3CCCC3=O)cnn2c(C)c1Cc1cccnc1 [CBK162151]")
108
>>> measurement("c1ccc(CNC2(Cc3cc(-c4ccccn4)on3)COC2)cc1 [CBK289643]")
87.9
>>> measurement("COC(=O)c1c(NC(=S)Nc2cccc(S(=O)(=O)N3CCOCC3)c2)sc2c1CCC2 [CBK267054]")
93.8
>>> measurement("O=C(CSc1nnc(-c2ccc(F)cc2)n1-c1ccccc1)Nc1cccc2ccccc12 [CBK267592]")
89.8

Reference source: paper PMC12040169
